Target: Gamma-aminobutyric acid receptor subunit alpha-4/beta-1/delta (Homo sapiens, UniProt O14764+P18505+P48169)
Sequence (P48169 whole entry): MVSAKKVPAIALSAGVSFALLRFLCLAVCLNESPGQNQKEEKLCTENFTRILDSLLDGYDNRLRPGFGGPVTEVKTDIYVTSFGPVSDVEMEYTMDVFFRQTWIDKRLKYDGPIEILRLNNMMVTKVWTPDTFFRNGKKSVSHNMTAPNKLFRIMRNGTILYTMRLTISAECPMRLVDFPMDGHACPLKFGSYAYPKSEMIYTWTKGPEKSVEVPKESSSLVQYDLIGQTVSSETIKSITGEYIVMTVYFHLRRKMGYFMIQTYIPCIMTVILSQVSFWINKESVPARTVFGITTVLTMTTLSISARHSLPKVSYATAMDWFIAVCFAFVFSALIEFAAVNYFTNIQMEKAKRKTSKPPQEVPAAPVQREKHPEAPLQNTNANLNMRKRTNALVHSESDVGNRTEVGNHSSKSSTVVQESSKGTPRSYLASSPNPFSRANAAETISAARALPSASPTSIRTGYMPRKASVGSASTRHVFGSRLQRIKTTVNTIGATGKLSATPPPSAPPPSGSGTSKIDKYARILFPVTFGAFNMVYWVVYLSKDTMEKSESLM
Sequence (O14764 whole entry): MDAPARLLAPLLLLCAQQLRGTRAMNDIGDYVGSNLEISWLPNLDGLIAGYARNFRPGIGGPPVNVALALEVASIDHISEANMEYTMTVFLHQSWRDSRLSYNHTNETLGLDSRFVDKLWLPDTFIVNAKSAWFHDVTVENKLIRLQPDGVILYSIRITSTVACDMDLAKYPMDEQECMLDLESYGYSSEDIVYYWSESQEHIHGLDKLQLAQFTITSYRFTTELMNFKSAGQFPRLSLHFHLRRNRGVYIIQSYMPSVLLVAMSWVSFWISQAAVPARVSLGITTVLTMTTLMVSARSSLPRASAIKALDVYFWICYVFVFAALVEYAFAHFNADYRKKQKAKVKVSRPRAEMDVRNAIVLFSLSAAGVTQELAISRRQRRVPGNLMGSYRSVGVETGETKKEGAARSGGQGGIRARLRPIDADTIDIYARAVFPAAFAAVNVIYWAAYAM
Sequence (P18505 whole entry): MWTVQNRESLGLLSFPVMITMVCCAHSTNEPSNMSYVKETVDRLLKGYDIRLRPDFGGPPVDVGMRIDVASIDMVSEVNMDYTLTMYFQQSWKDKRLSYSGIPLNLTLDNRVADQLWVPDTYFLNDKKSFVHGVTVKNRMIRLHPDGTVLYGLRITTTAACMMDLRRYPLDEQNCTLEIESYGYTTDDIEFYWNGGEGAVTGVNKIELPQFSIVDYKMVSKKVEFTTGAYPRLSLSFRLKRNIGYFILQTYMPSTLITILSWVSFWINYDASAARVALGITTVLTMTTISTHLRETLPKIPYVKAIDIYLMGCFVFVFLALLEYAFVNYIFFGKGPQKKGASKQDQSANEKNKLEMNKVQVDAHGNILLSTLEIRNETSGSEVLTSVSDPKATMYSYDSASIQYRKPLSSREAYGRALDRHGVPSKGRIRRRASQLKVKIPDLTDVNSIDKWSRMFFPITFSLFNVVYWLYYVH
Assay: Positive allosteric modulation of human recombinant alpha4beta1delta GABAA receptor expressed in delta-HEK cells assessed as potentiation of GABA-induced response in presence of GABA EC20 by FMP assay
measured_endpoint: EC50 (nM)

[1] O=C(Nc1c(-c2cccs2)nc2ccc(C(F)(F)F)cn12)c1ccc(Cl)cc1
[2] O=C(Nc1c(-c2cccs2)nc2ccc(Cl)cn12)c1ccc(Cl)cc1
[3] O=C(Nc1c(-c2cccs2)nc2ccc(F)cn12)c1ccc(Cl)cc1
[4] O=C(Nc1c(-c2cccs2)nc2ccc(Br)cn12)c1ccc(Cl)cc1
q: Order them by EC50, ascending: the compounds above. Would you mind listing the labels in the order requested?
a: 4, 2, 1, 3
(4: 60 nM, 2: 140 nM, 1: 1100 nM, 3: 1920 nM)
